# assay.target: T1, human PTH receptor (Mus musculus, UniProt P41593)
# T1 construct: mouse cranial bone-derived osteoblast-like cell strain MC3T3-EI cultivated on a 96-well multiplate; endogenous in cells; host or cells: MC3T3-E1 (mouse cranial bone-derived osteoblast-like cells)
# T1 sequence (P41593 27-591): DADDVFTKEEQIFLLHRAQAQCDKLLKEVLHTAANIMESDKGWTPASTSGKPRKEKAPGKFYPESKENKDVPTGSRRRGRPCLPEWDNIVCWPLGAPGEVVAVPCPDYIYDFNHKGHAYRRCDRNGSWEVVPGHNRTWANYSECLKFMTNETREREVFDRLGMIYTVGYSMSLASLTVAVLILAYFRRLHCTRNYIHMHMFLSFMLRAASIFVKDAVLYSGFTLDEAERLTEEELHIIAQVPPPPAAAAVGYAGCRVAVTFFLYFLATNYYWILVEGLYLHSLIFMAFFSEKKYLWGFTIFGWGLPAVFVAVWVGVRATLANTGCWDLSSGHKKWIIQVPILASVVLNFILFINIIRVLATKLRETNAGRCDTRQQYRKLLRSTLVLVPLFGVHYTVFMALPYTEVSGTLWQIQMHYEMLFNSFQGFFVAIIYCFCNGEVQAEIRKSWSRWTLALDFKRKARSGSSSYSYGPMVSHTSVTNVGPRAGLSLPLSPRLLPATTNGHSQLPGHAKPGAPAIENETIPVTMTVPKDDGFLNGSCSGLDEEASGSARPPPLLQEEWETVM
# experiment.summary: cAMP production in osteoblast-like MC3T3-EI cells (modified method of Shigeno et al.)
# Format: cell-based
# condition.label: specific activity of the muteins on the natural type human PTH (=1.0), 0.01-100 nM analogue, room temperature, 30 minutes
measure.name: Specific Activity

molecule | measured
[Leu^8,18 ] human PTH: human PTH (1-84) mutein in which methionine residues at the 8- and 18-positions were substituted by leucine (protein) SVSEIQLLHNLGKHLNSLERVEWLRKKLQDVHNFVALGAPLAPRDAGSQRPRKKEDNVLVESHEKSLGEADKADVNVLTKAKSQ | 0.3
[Leu^18 ] human PTH: human PTH (1-84) mutein in which methionine at the 18-position was substituted by leucine (protein) SVSEIQLMHNLGKHLNSLERVEWLRKKLQDVHNFVALGAPLAPRDAGSQRPRKKEDNVLVESHEKSLGEADKADVNVLTKAKSQ | 0.2
[Leu^8 ] human PTH (protein) SVSEIQLLHNLGKHLNSMERVEWLRKKLQDVHNFVALGAPLAPRDAGSQRPRKKEDNVLVESHEKSLGEADKADVNVLTKAKSQ | 1.0

# credit: patent US5856138A
